- STUDY_SYSTEM: MSK1/RPS6KA5 (Homo sapiens, UniProt O75582)
- Sequence (O75582 whole entry): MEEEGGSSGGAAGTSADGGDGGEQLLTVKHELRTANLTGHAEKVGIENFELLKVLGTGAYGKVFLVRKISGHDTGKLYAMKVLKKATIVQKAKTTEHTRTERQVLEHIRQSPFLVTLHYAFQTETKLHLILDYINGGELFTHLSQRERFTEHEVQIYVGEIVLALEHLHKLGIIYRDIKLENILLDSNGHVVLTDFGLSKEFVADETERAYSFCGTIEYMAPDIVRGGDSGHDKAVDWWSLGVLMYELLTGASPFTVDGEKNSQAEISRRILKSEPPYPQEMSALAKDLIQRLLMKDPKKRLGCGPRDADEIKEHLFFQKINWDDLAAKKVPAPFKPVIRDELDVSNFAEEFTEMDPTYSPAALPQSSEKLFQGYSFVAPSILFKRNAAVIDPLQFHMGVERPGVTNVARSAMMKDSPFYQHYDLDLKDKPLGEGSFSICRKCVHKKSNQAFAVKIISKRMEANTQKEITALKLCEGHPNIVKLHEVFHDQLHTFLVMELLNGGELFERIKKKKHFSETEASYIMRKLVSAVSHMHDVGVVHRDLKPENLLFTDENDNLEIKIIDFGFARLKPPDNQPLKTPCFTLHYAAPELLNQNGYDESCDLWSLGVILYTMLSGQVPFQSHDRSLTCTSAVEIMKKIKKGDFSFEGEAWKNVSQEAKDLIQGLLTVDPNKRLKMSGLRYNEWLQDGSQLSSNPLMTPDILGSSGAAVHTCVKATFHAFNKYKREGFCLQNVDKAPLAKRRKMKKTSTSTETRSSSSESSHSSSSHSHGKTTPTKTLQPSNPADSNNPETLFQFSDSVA
- METHOD_DESCRIPTION: Kinase selectivity, % remaining activity
- Type: biochemical
- CONDITIONS: 10 μM compound, 10 μM ATP, duplicate, read-out: % of remaining activity (relative to DMSO)
MEASURED_QUANTITY: remaining activity at 10 µM (%)
Please give a number only; it is taken to be in %.

{"MOLECULE": "Nc1ncnc2c1c(COc1cccc(Cl)c1)nn2C1CCOCC1 [PF4800567]", "MEASURED_QUANTITY": "remaining activity at 10 µM", "DATA_VALUE": 104}
{"MOLECULE": "CNc1c(C(N)=O)c2ccccn2c1C(=O)c1ccc(F)cc1 [Compound A]", "MEASURED_QUANTITY": "remaining activity at 10 µM", "DATA_VALUE": 117}

Param item: NC(=O)c1c(N)c(C(=O)c2ccc(F)cc2)n2ccccc12 [Comparative Compound 987] ; param system: MSK1/RPS6KA5 (Homo sapiens, UniProt O75582); output remaining activity at 10 µM: 91.4

Param item: Nc1ncc(-c2nc3ccccc3o2)c(-c2ccncc2)n1 [Comparative Compound 324] ; param system: MSK1/RPS6KA5 (Homo sapiens, UniProt O75582); output remaining activity at 10 µM: 81.1

Param item: COc1ccc(C=C2N=C(c3cccs3)OC2=O)cc1 [Comparative Compound 315] ; param system: MSK1/RPS6KA5 (Homo sapiens, UniProt O75582); output remaining activity at 10 µM: 117

====

- METHOD_DESCRIPTION: Pharmacokinetics in male CD-1 mice
- Format: in vivo
- CONDITIONS: male, CD-1, mouse, plasma, po, 3 mg/kg, PO 3 mg/kg, plasma, male CD-1 mice; read-out: AUC0-24 h
Measured AUC(0-t) of individual entries
Please give a number only; it is taken to be in ng·h/mL.

{"MOLECULE": "CNc1c(C(N)=O)c2ccccn2c1C(=O)c1ccc(F)cc1", "MEASURED_QUANTITY": "AUC(0-t)", "DATA_VALUE": 35.4}

The record that follows has no AUC(0-t) shown yet.
compound Nc1ncc(-c2nc3ccccc3o2)c(-c2ccncc2)n1 , AUC(0-t) observed: 11.1

====

- STUDY_SYSTEM: CK1g3 (Homo sapiens)
- Sequence (Q9Y6M4 whole entry): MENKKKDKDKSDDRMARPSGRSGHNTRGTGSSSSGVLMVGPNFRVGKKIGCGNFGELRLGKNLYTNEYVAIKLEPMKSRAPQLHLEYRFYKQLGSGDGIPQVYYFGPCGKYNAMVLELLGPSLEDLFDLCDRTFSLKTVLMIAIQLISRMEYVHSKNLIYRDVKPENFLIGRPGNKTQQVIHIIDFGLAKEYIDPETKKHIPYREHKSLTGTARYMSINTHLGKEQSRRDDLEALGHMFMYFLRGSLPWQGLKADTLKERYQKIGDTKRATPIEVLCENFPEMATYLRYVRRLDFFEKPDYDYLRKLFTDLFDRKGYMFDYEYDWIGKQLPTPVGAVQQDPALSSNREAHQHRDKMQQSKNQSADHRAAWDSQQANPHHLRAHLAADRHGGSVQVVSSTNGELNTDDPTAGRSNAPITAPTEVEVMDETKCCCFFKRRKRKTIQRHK
- METHOD_DESCRIPTION: Kinase selectivity, % remaining activity
- Assay type: biochemical
- CONDITIONS: 10 μM compound, 10 μM ATP, duplicate, read-out: % of remaining activity (relative to DMSO)
- Protocol: A two-tier strategy to determine the selectivity of compound A was applied: first, the compound was tested at a single concentration (in duplicate) to determine the %-remaining activity of the target kinase. Subsequently, the IC50 of compound A and comparative compounds for casein kinase 1 delta were determined. […]
MEASURED_QUANTITY: remaining activity at 10 µM (%)
Please give a number only; it is taken to be in %.

{"MOLECULE": "Nc1ncnc2c1c(COc1cccc(Cl)c1)nn2C1CCOCC1", "STUDY_SYSTEM": "CK1g3 (Homo sapiens)", "UNITS": "%", "remaining activity at 10 µM": 88.9}

compound COc1ccc(C=C2N=C(c3cccs3)OC2=O)cc1 , remaining activity at 10 µM observed: 2.9

compound Nc1ncc(-c2nc3ccccc3o2)c(-c2ccncc2)n1 , remaining activity at 10 µM observed: 69.9

compound NC(=O)c1c(N)c(C(=O)c2ccc(F)cc2)n2ccccc12 , remaining activity at 10 µM observed: 101

compound CNc1c(C(N)=O)c2ccccn2c1C(=O)c1ccc(F)cc1 , remaining activity at 10 µM observed: 98.5

====

- METHOD_DESCRIPTION: Determination of compound in plasma and brain by LC-MS/MS
- Format: in vivo
- CONDITIONS: TMHT, mouse, hippocampus, oral, 30 mg/kg, TMHT mice of experiment 5.5, 30 mg/kg orally for 8 weeks, hippocampus at sacrifice, LC-MS/MS, one value per mouse; read-out: concentration in hippocampus
- Protocol: Plasma and brain samples derived from the experiments in 5.5 were pooled from single time point and were analysed for the presence and concentration of Comparative Compound 324 and Compound A by LC-MS/MS after protein precipitation over the calibration range of 0.5-10,000 ng/mL. Chrysin (Sigma®), control mouse plasma and brain (obtained from a commercial supplier) were used as internal standards. […] In total 32 samples were analysed. […]
MEASURED_QUANTITY: concentration at 8 weeks (ng/mL)
Please give a number only; it is taken to be in ng/mL.

compound CNc1c(C(N)=O)c2ccccn2c1C(=O)c1ccc(F)cc1 , concentration at 8 weeks observed: 10.5

====

Measured remaining activity at 10 µM of individual entries
- STUDY_SYSTEM: UniProt:P11362
- Sequence (P11362 22-822): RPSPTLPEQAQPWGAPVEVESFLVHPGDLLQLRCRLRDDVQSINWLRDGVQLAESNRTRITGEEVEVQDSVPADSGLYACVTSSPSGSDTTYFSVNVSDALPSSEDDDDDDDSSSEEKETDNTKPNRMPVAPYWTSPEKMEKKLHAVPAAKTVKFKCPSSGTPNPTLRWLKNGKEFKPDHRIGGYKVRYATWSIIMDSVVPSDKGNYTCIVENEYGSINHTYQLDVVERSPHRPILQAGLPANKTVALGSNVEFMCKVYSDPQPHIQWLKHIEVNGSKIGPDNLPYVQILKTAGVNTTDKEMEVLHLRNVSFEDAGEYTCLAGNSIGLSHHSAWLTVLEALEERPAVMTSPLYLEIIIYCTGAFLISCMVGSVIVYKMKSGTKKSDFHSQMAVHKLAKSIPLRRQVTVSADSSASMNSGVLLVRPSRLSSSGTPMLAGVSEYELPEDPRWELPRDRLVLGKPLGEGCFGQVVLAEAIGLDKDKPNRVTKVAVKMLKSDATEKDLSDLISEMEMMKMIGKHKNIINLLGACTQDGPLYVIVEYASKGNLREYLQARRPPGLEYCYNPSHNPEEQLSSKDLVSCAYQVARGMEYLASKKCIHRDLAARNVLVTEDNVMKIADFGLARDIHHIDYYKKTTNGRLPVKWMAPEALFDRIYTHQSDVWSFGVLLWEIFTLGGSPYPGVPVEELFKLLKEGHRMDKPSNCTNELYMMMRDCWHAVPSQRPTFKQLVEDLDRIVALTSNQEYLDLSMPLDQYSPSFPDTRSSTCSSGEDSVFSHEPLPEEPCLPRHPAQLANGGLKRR
- METHOD_DESCRIPTION: Kinase selectivity, % remaining activity
- Assay type: biochemical
- CONDITIONS: 10 μM compound, 10 μM ATP, duplicate, read-out: % of remaining activity (relative to DMSO)
- Protocol: A two-tier strategy to determine the selectivity of compound A was applied: first, the compound was tested at a single concentration (in duplicate) to determine the %-remaining activity of the target kinase. Subsequently, the IC50 of compound A and comparative compounds for casein kinase 1 delta were determined. […]
Please give a number only; it is taken to be in %.

Answered examples (3):
{"MOLECULE": "Nc1ncnc2c1c(COc1cccc(Cl)c1)nn2C1CCOCC1 [PF4800567]", "MEASURED_QUANTITY": "remaining activity at 10 µM", "UNITS": "%", "DATA_VALUE": 80.8}
{"MOLECULE": "NC(=O)c1c(N)c(C(=O)c2ccc(F)cc2)n2ccccc12 [Comparative Compound 987]", "MEASURED_QUANTITY": "remaining activity at 10 µM", "UNITS": "%", "DATA_VALUE": 78.7}
{"MOLECULE": "CNc1c(C(N)=O)c2ccccn2c1C(=O)c1ccc(F)cc1 [Compound A]", "MEASURED_QUANTITY": "remaining activity at 10 µM", "UNITS": "%", "DATA_VALUE": 95.7}

Param item: Nc1ncc(-c2nc3ccccc3o2)c(-c2ccncc2)n1 [Comparative Compound 324] ; param system: UniProt:P11362; output remaining activity at 10 µM: 104

Param item: COc1ccc(C=C2N=C(c3cccs3)OC2=O)cc1 [Comparative Compound 315] ; param system: UniProt:P11362; output remaining activity at 10 µM: 102

====

- METHOD_DESCRIPTION: Pharmacokinetics in male CD-1 mice
- Format: in vivo
- CONDITIONS: mouse; PO 30 mg/kg, plasma, male CD-1 mice; predicted
MEASURED_QUANTITY: CL/F

compound CNc1c(C(N)=O)c2ccccn2c1C(=O)c1ccc(F)cc1 , CL/F observed: 868 mL/min/kg

====

- STUDY_SYSTEM: JNK2 (Homo sapiens)
- Sequence (P45984 whole entry): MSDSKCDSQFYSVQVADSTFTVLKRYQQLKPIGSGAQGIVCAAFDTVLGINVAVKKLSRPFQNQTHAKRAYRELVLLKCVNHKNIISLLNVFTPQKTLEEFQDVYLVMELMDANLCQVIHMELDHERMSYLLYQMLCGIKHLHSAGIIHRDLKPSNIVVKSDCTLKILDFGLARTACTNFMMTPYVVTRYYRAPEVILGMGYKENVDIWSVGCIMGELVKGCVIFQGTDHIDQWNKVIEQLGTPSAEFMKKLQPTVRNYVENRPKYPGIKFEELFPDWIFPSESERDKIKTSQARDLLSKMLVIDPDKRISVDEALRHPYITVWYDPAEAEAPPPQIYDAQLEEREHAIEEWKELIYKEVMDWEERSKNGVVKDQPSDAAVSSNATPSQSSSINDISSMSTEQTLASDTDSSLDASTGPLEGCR
- METHOD_DESCRIPTION: Kinase selectivity, % remaining activity
- Type: biochemical
- CONDITIONS: 10 μM compound, 10 μM ATP, duplicate, read-out: % of remaining activity (relative to DMSO)
MEASURED_QUANTITY: remaining activity at 10 µM (%)
Please give a number only; it is taken to be in %.

{"MOLECULE": "CNc1c(C(N)=O)c2ccccn2c1C(=O)c1ccc(F)cc1 [Compound A]", "STUDY_SYSTEM": "JNK2 (Homo sapiens)", "remaining activity at 10 µM, %": 99.9}
{"MOLECULE": "Nc1ncc(-c2nc3ccccc3o2)c(-c2ccncc2)n1 [Comparative Compound 324]", "STUDY_SYSTEM": "JNK2 (Homo sapiens)", "remaining activity at 10 µM, %": 95.1}
{"MOLECULE": "COc1ccc(C=C2N=C(c3cccs3)OC2=O)cc1 [Comparative Compound 315]", "STUDY_SYSTEM": "JNK2 (Homo sapiens)", "remaining activity at 10 µM, %": 99.4}
{"MOLECULE": "Nc1ncnc2c1c(COc1cccc(Cl)c1)nn2C1CCOCC1 [PF4800567]", "STUDY_SYSTEM": "JNK2 (Homo sapiens)", "remaining activity at 10 µM, %": 96.5}

The record that follows has no remaining activity at 10 µM shown yet.
molecule NC(=O)c1c(N)c(C(=O)c2ccc(F)cc2)n2ccccc12 [Comparative Compound 987] , remaining activity at 10 µM observed: 60

====

- METHOD_DESCRIPTION: Pharmacokinetics in male CD-1 mice
- Assay type: in vivo
- CONDITIONS: mouse; PO 30 mg/kg, plasma, male CD-1 mice
MEASURED_QUANTITY: half-life (h)
Please give a number only; it is taken to be in h.

molecule CNc1c(C(N)=O)c2ccccn2c1C(=O)c1ccc(F)cc1 , half-life observed: 3.5
